Value source: ChEMBL document CHEMBL1201862

- System: IGROV-1
- assay_name: NCI tumour cell line growth inhibition, 48 h
The source made the active and inactive calls. Rule as the data show it: active = GI50 up to about 1.1 µM and inactive = higher.
Outcomes: yes for active, no for inactive

                                    compound  assigned_category
 0  Cn1c(/C=C/CO)c(CO)c2c1C(=O)C=C(N1CC1)C2=O                yes
 1      CC(=O)c1cc([N+](=O)[O-])ccc1OCC(=O)O                 no
 2  O=c1[nH]c(-c2ccccc2)nc2c1sc1nc3ccccc3n12                 no
 3      O=C1c2ccccc2C(=O)N1CCCOCc1cnc(O)nc1O                 no
 4  CC(C)Cc1cc(CCC(=O)Nc2ccccc2[N+](=O)[O-])nc(NC#N)n1                 no
 5  C/C(=C\CCC1=CC(=O)OC1)CCC1C2C(=O)CC(C)[C@@]3(C)CC[C@]1(C)[C@@]23C (stereo partly specified)                 no
 6  Cc1cc(N(CCC#N)CCC#N)ccc1/C=C1/N=C(c2ccccc2)N(N)C1=O                 no
 7                  COc1cc(C)c(O)c(C(=O)O)c1                 no
 8                      O=C1CCCN(c2ccccc2)N1                 no
 9  COc1cc(NS(C)(=O)=O)ccc1NCc1c[nH]c2ccc3nc(C)ccc3c12                 no
10  CCCCC1(C2c3ccccc3Oc3ccccc32)C(=O)N(c2ccccc2)N(c2ccccc2)C1=O                 no

====

- Tested on: NCI-H460
- assay_name: NCI tumour cell line growth inhibition, 48 h
Active and inactive are the calls of the source. No stated cut-off is given here; in the data, active = GI50 up to about 1.1 µM and inactive = higher.
GI50 by entry:
measured_endpoint: GI50

>>> print(df.to_string())
                                   molecule               result
0  Cc1ccc(S(=O)(=O)OC2CC(C(C)(C)C)CCC2c2ccccc2)cc1 (stereo not given)   78.7 µM (inactive)
1  CC(C)(C)C1=C(Br)C(C(C)(C)C)OP1(=O)O (stereo not given)  > 100 µM (inactive)
2  Cc1ccc([N+](=O)[O-])cc1NC(=O)C(=O)Cc1occc(=O)c1O  > 100 µM (inactive)
3  Cc1ccc(S(=O)(=O)NC(=O)NC(CC(=O)O)C(=O)O)cc1 (stereo not given)  > 100 µM (inactive)
4  Cc1ccc(C(=O)C2=CN=C3C(=O)N(c4ccccc4)N(C)C3(C)C2=N)cc1 (stereo not given)  > 100 µM (inactive)
5      O=C(NCCCCNCCCNC(=O)c1ccccc1)c1ccccc1  > 100 µM (inactive)
6  COC(=O)c1sc2c(=O)c(C(=O)OC)c(C(=O)OC)sc2c(=O)c1C(=O)OC  > 100 µM (inactive)
7  O=C(/C=C/c1ccc(OCc2ccccc2)c(OCc2ccccc2)c1)OCc1ccccc1  > 100 µM (inactive)
8      O=C1c2ccccc2C(=O)N1CCCOCc1cnc(O)nc1O  > 100 µM (inactive)
9  CC[C@]1(Cc2ccc(OC)c(OC)c2)C=[N+]([O-])O[C@H](OC2CCCC2(c2ccccc2)c2ccccc2)[C@@H]1OC(=O)c1ccccc1 (stereo not given in full)   14.2 µM (inactive)

====

- System: NCI-H522
- assay_name: NCI tumour cell line growth inhibition, 48 h
Activity calls are given as the source filed them. Rule as the data show it: active = GI50 up to about 1.1 µM and inactive = higher.
Classes used: active, inactive

molecule	assigned_category
CCOC(=O)[C@@]1(C(C)=O)CC(C)=C(C)C[S@@+]1[O-]	inactive
O=C(O)CCCc1ccccc1 [SODIUM PHENYLBUTYRATE]	inactive
CN(C)CCN1N=Nc2cccc3cccc1c23	inactive
Nc1ccccc1C#CC(=O)c1cccc(C(F)(F)F)c1	active
CCN(CC)CCNc1ccc2nnn3c4ccc(OC(C)=O)cc4c(=O)c1c23	active
Nc1nc(Cl)c(/C=N\O)c(NCC2(CO)CCC2)n1	inactive
Cc1cc(C)c(C2[C@H]3C(=O)N(c4ccc(Cc5ccc(N6C(=O)[C@@H]7ON(c8ccccc8)C(c8c(C)cc(C)cc8C)[C@@H]7C6=O)cc5)cc4)C(=O)[C@H]3ON2c2ccccc2)c(C)c1 (stereo partly specified)	inactive
COc1cc(O)c2c(=O)c3cccc(C)c3[nH]c2c1	inactive
Clc1ccc(COC(Cn2ccnc2)c2ccc(Cl)cc2Cl)c(Cl)c1 (stereo unspecified) [MICONAZOLE]	inactive
Cn1c2c(c3ccccc31)CCN1C(=O)CN(C(=O)C3CCCCC3)CC21 (stereo unspecified)	inactive
c1ccc(C(NC2CCCCC2NCCNC2CCCCC2NC(c2ccccc2)(c2ccccc2)c2ccccc2)(c2ccccc2)c2ccccc2)cc1 (stereo unspecified)	inactive

====

- Tested on: SF-268
- assay_name: NCI tumour cell line growth inhibition, 48 h
Activity calls are given as the source filed them. No stated cut-off is given here; in the data, active = GI50 up to about 1.1 µM and inactive = higher.
Measured GI50 of individual entries
measured_endpoint: GI50

>>> df
                                    compound  measured_endpoint               result
 0  CC[N+](CC)(CC)Cc1cn(S(=O)(=O)c2ccccc2)c2ccccc12               GI50  > 100 µM (inactive)
 1   O=[N+]([O-])c1cc2c([N+](=O)[O-])cccc2o1               GI50   15.7 µM (inactive)
 2            NCCCNCCSP(=O)(O)O [AMIFOSTINE]               GI50  > 750 µM (inactive)
 3              CC(C)=NN/C=N\C(C#N)=C(/N)C#N               GI50  > 100 µM (inactive)
 4           Cc1ccsc1/C=N/Nc1cc(C)c2ccccc2n1               GI50   17.6 µM (inactive)
 5  N#C[BH2-][n+]1ccc(C(=O)NNCc2cccc(C(F)(F)F)c2)cc1               GI50   4.82 µM (inactive)
 6  CC1(C)O[C@@H]2[C@@H](COC(C)(C)O[C@H]2C2SCCCS2)O1               GI50  > 100 µM (inactive)
 7  Cc1cc2c(cc1O)CC[C@@H]1[C@@H]2CC[C@]2(C)[C@@H](O)CC[C@@H]12               GI50   15.5 µM (inactive)
 8    COc1ccc(OC)c2c1ccc1c(C)c3ccccc3c(C)c12               GI50  > 100 µM (inactive)
 9  C=C(C=O)[C@@H]1C2OC(=O)C(=C)[C@@H]2CC(O)[C@@]1(C)CC (stereo partly specified)               GI50   23.8 µM (inactive)
10  C[C@]1(CO)CCC[C@@]2(C)C1CC[C@H]1CC3C[C@]12CC[C@]3(C)O (stereo partly specified)               GI50  > 100 µM (inactive)
11  O=c1ccn([C@@H]2C[C@H](CO)C[S+]([O-])C2)c(=O)[nH]1 (stereo partly specified)               GI50  > 100 µM (inactive)
12  CC1CCN(CCC(=O)CC(c2ccccc2)c2c(O)c3ccccc3oc2=O)CC1 (stereo unspecified)               GI50  > 100 µM (inactive)
13  COc1cc2c[n+](C)c3c4cc(OC)c(OC)cc4c(OCCCCCCCCOc4cc5c6cc(OC)c(OC)cc6c[n+](C)c5c5cc(OC)c(OC)cc45)cc3c2cc1OC               GI50  > 100 µM (inactive)
14  COc1cc2oc3cc(=O)cc4oc(-c5ccccc5)cc(c2c2c1CCC(c1ccccc1)O2)c43 (stereo unspecified)               GI50  > 100 µM (inactive)
15  COc1cc2c(cc1OC)C1C[C@]3(CCN1CC2)C(=O)N(c1ccccc1)C(=O)N3C(C)=O (stereo partly specified)               GI50  > 200 µM (inactive)
16           CCOC(=O)C(=Cc1ccccc1Br)C(=O)OCC               GI50   3.11 µM (inactive)
17  O=c1[nH]c(-c2ccccc2)nc2c1sc1nc3ccccc3n12               GI50   78.2 µM (inactive)
18   Cc1cc(/N=C/c2ccc(C#N)cc2)n(-c2ccccc2)n1               GI50   48.5 µM (inactive)
19               CN(C)CCN1N=Nc2cccc3cccc1c23               GI50  > 100 µM (inactive)
20  N#CC(NC12CC3CC(CC(C3)C1)C2)c1ccc2c(c1)OCO2 (stereo unspecified)               GI50  > 100 µM (inactive)
